biological target: P-gp (ABCB1) (Homo sapiens, UniProt P08183); assay: Inhibition of human Pgp-mediated DNR transport in NIH3T3 cells by microplate assay; type: cell-based, Mus musculus; conditions: mouse, NIH3T3 cells expressing human P-gp, probe DNR; read-out: Imax
Sequence (P08183 whole entry): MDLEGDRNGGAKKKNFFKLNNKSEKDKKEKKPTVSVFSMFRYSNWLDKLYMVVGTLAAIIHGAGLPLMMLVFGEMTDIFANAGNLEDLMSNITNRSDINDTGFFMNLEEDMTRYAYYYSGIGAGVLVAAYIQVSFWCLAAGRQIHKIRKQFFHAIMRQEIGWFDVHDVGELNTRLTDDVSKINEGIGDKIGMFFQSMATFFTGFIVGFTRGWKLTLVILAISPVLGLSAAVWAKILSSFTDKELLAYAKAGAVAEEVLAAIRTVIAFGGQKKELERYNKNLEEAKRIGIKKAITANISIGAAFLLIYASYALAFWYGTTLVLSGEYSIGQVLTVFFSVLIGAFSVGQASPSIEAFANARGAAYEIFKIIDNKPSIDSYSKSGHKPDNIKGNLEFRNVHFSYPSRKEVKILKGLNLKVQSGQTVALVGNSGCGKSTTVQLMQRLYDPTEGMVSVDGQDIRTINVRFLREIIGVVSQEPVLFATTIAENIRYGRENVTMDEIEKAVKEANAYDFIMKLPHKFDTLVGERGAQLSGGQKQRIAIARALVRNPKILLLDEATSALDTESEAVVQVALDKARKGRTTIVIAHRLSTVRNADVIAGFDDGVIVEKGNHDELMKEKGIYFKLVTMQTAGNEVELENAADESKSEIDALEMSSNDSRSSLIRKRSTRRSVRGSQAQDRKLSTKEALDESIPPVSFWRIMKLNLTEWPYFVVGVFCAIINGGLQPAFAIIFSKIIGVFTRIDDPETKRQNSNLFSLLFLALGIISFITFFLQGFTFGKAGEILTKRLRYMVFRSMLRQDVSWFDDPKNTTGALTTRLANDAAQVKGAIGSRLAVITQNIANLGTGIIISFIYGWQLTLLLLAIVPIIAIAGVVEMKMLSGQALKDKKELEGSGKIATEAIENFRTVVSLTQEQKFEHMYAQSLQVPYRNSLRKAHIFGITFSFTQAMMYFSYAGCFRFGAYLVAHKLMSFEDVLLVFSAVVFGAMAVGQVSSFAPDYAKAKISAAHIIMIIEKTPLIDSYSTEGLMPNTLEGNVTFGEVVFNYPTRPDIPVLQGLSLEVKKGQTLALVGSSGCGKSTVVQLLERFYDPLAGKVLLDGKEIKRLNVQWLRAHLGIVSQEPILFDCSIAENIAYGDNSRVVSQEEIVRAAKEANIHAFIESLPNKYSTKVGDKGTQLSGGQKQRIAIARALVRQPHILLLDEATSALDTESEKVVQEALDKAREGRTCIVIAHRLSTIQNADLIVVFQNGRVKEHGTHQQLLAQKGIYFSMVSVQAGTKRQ
attribute_measured: Emax (%)

{"cpd_smiles": "CCCCCO[C@H]1C[C@@](C)(O)[C@]23OC(C)(C)[C@H](C[C@H](OC(=O)c4ccco4)[C@]2(C)[C@H]1OC(C)=O)[C@H]3OC(=O)c1ccco1", "attribute_measured": "Emax", "measured_result": 95.5}
{"cpd_smiles": "CC(=O)O[C@H]1[C@@H](OC(=O)c2ccccc2)C[C@@](C)(O)[C@]23OC(C)(C)[C@H](C[C@H](OC(=O)c4ccco4)[C@]12C)[C@H]3OC(=O)C(C)(C)C", "attribute_measured": "Emax", "measured_result": 90}
{"cpd_smiles": "CC(=O)O[C@@H]1C[C@@](C)(O)[C@@]23C[C@@H](C[C@H](OC(=O)/C=C/c4ccccc4)[C@]2(C)[C@H]1OC(=O)c1ccccc1)C(C)(C)O3", "attribute_measured": "Emax", "measured_result": 100}
{"cpd_smiles": "CC(=O)OC[C@]12[C@H](OC(C)=O)C(=O)[C@@H]3[C@@H](OC(C)=O)[C@]1(OC3(C)C)[C@H](C)C[C@H](OC(C)=O)[C@@H]2OC(=O)c1ccccc1", "attribute_measured": "Emax", "measured_result": 96.4}
{"cpd_smiles": "CC(=O)O[C@H]1CC[C@@](C)(O)[C@]23OC(C)(C)[C@H](C[C@H](OC(=O)c4ccco4)[C@]12C)[C@H]3OC(=O)c1ccco1", "attribute_measured": "Emax", "measured_result": 96.3}
{"cpd_smiles": "CC(=O)O[C@@H]1[C@H](OC(C)=O)[C@@H](C)[C@@]23C[C@@H](C[C@H](OC(=O)/C=C/c4ccccc4)[C@]2(C)[C@H]1OC(=O)c1ccccc1)C(C)(C)O3", "attribute_measured": "Emax", "measured_result": 75.8}
{"cpd_smiles": "C[C@@H]1[C@@H](O)[C@@H](O)[C@H](OC(=O)c2ccccc2)[C@@]2(C)[C@@H](OC(=O)/C=C/c3ccccc3)C[C@@H]3C[C@]12OC3(C)C", "attribute_measured": "Emax", "measured_result": 76.6}
{"cpd_smiles": "CC(=O)OC[C@]12[C@@H](OC(=O)c3ccco3)C[C@@H]3[C@@H](OC(=O)c4ccco4)[C@]1(OC3(C)C)[C@](C)(O)C[C@H](OC(C)=O)[C@@H]2OC(C)=O", "attribute_measured": "Emax", "measured_result": 76.9}
{"cpd_smiles": "CCCCCO[C@H]1[C@@H](OC(=O)c2ccco2)C[C@@](C)(O)[C@]23OC(C)(C)[C@H](C[C@H](OC(=O)c4ccco4)[C@]12COC(C)=O)[C@H]3OC(C)=O", "attribute_measured": "Emax", "measured_result": 91.3}
{"cpd_smiles": "CC(=O)OC[C@]12[C@H](OC(=O)c3ccccc3)C(=O)[C@@H]3[C@@H](O)[C@]1(OC3(C)C)[C@](C)(O)C[C@H](OC(C)=O)[C@@H]2OC(=O)c1ccccc1", "attribute_measured": "Emax", "measured_result": 74.4}
{"cpd_smiles": "CC(=O)O[C@H]1[C@@H]2[C@@H](OC(C)=O)[C@@]3(OC2(C)C)[C@](C)([C@H]1OC(=O)c1ccccc1)[C@@H](OC(=O)c1ccccc1)[C@@H](OC(=O)c1ccccc1)C[C@@]3(C)O", "attribute_measured": "Emax", "measured_result": 80.7}
{"cpd_smiles": "CC(=O)OC[C@]12[C@H](OC(=O)c3ccccc3)C(=O)[C@@H]3[C@@H](OC(C)=O)[C@]1(OC3(C)C)[C@H](C)C[C@H](OC(C)=O)[C@@H]2OC(=O)c1ccccc1", "attribute_measured": "Emax", "measured_result": 81.6}
{"cpd_smiles": "CC(=O)OC[C@]12[C@@H](OC(=O)c3ccccc3)C[C@@H]3[C@@H](OC(=O)c4ccccc4)[C@]1(OC3(C)C)[C@](C)(O)C[C@H](OC(=O)c1cccnc1)[C@@H]2OC(C)=O", "attribute_measured": "Emax", "measured_result": 100}
{"cpd_smiles": "CCCCCCCCCCCC(=O)O[C@@H]1[C@H]2C[C@H](OC(=O)c3ccco3)[C@]3(C)[C@@H](OC(C)=O)[C@@H](OC(=O)c4ccccc4)C[C@@](C)(O)[C@@]13OC2(C)C", "attribute_measured": "Emax", "measured_result": 29.2}

---

target: P-gp (ABCB1) (Homo sapiens); assay: Inhibition of human Pgp-mediated DNR transport in NIH3T3 cells by microplate assay; type: cell-based, Mus musculus; details: mouse, NIH3T3 cells expressing human P-gp, probe DNR; read-out: Imax

{"cpd_smiles": "CC(=O)O[C@H]1[C@@H](OC(=O)c2ccccc2)C[C@@](C)(O)[C@]23OC(C)(C)[C@H](C[C@H](OC(=O)c4ccco4)[C@]12C)[C@H]3O", "system_name": "P-gp (ABCB1) (Homo sapiens)", "value_units": "%", "Emax": 68}
{"cpd_smiles": "CC(=O)O[C@H]1[C@@H](OC(=O)c2cccnc2)C[C@@](C)(O)[C@]23OC(C)(C)[C@H](C[C@H](OC(=O)c4ccco4)[C@]12C)[C@H]3OC(=O)c1ccco1", "system_name": "P-gp (ABCB1) (Homo sapiens)", "value_units": "%", "Emax": 100}
{"cpd_smiles": "CC(=O)O[C@H]1[C@@H](OC(=O)c2ccccc2)C[C@@](C)(O)[C@]23OC(C)(C)[C@H](C[C@H](OC(=O)c4ccco4)[C@]12C)[C@H]3OC(=O)C(F)(F)F", "system_name": "P-gp (ABCB1) (Homo sapiens)", "value_units": "%", "Emax": 53.3}

---

target: ATP-dependent translocase ABCB1 (Homo sapiens, UniProt P08183); experiment: Inhibition of human Pgp-mediated DNR transport in NIH3T3 cells by microplate assay; format: cell-based, Mus musculus; conditions: read-out: Ki
Sequence (P08183 whole entry): as above
attribute_measured: Ki (µM)

{"cpd_smiles": "CC(=O)OC[C@]12[C@H](OC(C)=O)C(=O)[C@@H]3[C@@H](OC(C)=O)[C@]1(OC3(C)C)[C@](C)(O)[C@@H](OC(C)=O)[C@H](OC(C)=O)[C@@H]2OC(=O)c1ccccc1", "value_units": "µM", "measured_result": 6.52}
{"cpd_smiles": "CC(=O)O[C@H]1[C@@H]2C[C@@]3(OC2(C)C)[C@](C)([C@H]1OC(=O)c1ccccc1)[C@@H](OC(=O)c1ccccc1)[C@H](OC(C)=O)[C@H](OC(C)=O)[C@@]3(C)O", "value_units": "µM", "measured_result": 1.27}
{"cpd_smiles": "CC(=O)O[C@H]1CC[C@@](C)(O)[C@]23OC(C)(C)[C@H](C[C@H](OC(=O)c4ccco4)[C@]12C)[C@H]3OC(=O)c1ccco1", "value_units": "µM", "measured_result": 6.61}
{"cpd_smiles": "CC(=O)OC[C@@]12[C@@H](OC(=O)c3ccccc3)CC[C@@](C)(O)[C@]13OC(C)(C)[C@H]([C@@H](OC(=O)c1ccccc1)[C@H]2OC(=O)c1ccccc1)[C@H]3OC(C)=O", "value_units": "µM", "measured_result": 1.22}

---

target: ATP-dependent translocase ABCB1 (Homo sapiens, UniProt P08183); assay: Inhibition of human Pgp-mediated DNR transport in NIH3T3 cells by microplate assay; type: cell-based, Mus musculus; settings: read-out: Ki
Measured Ki accompanies every entry in the list below.

{"cpd_smiles": "CC(=O)O[C@H]1[C@@H](OC(=O)c2ccccc2)C[C@@](C)(O)[C@]23OC(C)(C)[C@H](C[C@H](OC(=O)c4ccco4)[C@]12C)[C@H]3O", "Ki / nM": 2500}
{"cpd_smiles": "CC(=O)OC[C@]12[C@H](OC(=O)c3ccccc3)C(=O)[C@@H]3[C@@H](OC(C)=O)[C@]1(OC3(C)C)[C@H](C)C[C@H](OC(C)=O)[C@@H]2OC(=O)c1ccccc1", "Ki / nM": 1630}
{"cpd_smiles": "CC(=O)OC[C@]12[C@@H](OC(=O)c3ccccc3)C[C@@H]3[C@@H](OC(C)=O)[C@]1(OC3(C)C)[C@H](C)C[C@H](OC(=O)c1ccccc1)[C@@H]2OC(C)=O", "Ki / nM": 630}
{"cpd_smiles": "CC(=O)OC[C@]12[C@@H](OC(=O)c3ccccc3)[C@@H](OC(=O)c3ccccc3)[C@@H]3[C@@H](OC(C)=O)[C@]1(OC3(C)C)[C@](C)(O)C[C@H](OC(C)=O)[C@@H]2OC(C)=O", "Ki / nM": 1740}
{"cpd_smiles": "CC(=O)OC[C@]12[C@H](OC(=O)c3ccccc3)C(=O)[C@@H]3[C@@H](OC(C)=O)[C@]1(OC3(C)C)[C@](C)(O)C[C@H](OC(=O)c1ccccc1)[C@@H]2OC(=O)c1ccccc1", "Ki / nM": 1030}
{"cpd_smiles": "CC(=O)O[C@H]1C[C@@](C)(O)[C@]23OC(C)(C)[C@H](C[C@H](OC(=O)c4ccco4)[C@]2(C)[C@H]1OC(C)=O)[C@H]3O", "Ki / nM": 17500}
